Value source: ChEMBL document CHEMBL1138882

# Test system: Monkey
# Test details: Iron clearing efficiency in monkey at 150 umol/kg
# Type: functional, Sapajus apella
Assay readout: Activity
Answer format reminder: number followed by unit.

Report Activity for C[C@]1(C(=O)O)CSC(c2ccc(O)cc2O)=N1 [DEFERITRIN] please. 16.8%

Name the reported Activity value associated with the molecule COc1ccc(C2=N[C@@](C)(C(=O)O)CS2)c(O)c1 24.4%

Look up Activity: O=C(O)[C@H]1CSC(c2ccc(O)cc2O)=N1 4.2%

Tell me the measured Activity of C[C@]1(C(=O)O)CSC(c2cc(O)ccc2O)=N1 , please. 12.6%

Need Activity of COc1ccc(O)c(C2=N[C@@](C)(C(=O)O)CS2)c1 , thanks. 18.9%

Which Activity value belongs to COc1ccc(C2=N[C@@H](C(=O)O)CS2)c(O)c1OC ? 12.4%

Consider the molecule shown here: O=C(O)[C@H]1CSC(c2cc(O)ccc2O)=N1 What is its recorded Activity? 1.8%

# input molecule: COc1ccc(O)c(C2=N[C@@H](C(=O)O)CS2)c1 ; wanted: its Activity 12%

Can you look up the measured Activity of COc1ccc(C2=N[C@@H](C(=O)O)CS2)c(O)c1 for me? 16.2%

---

# Tested on: Rattus norvegicus
# Test details: Toxicity in Sprague-Dawley rat at 384 umol/kg, po
# Type: organism-based
# Test parameters: in vivo
Assay readout: Activity

Here is how some compounds turned out for Activity.
> print(dat)
                            chemical.string  assay.readout  reported.measurement
1      COc1ccc(C2=N[C@@H](C(=O)O)CS2)c(O)c1       Activity             Non-toxic
2  COc1ccc(C2=N[C@@](C)(C(=O)O)CS2)c(O)c1OC       Activity                 Toxic
3        C[C@]1(C(=O)O)CSC(c2cc(O)ccc2O)=N1       Activity             Non-toxic
4      COc1ccc(O)c(C2=N[C@@H](C(=O)O)CS2)c1       Activity             Non-toxic
5        C[C@]1(C(=O)O)CSC(c2ccc(O)cc2O)=N1       Activity             Non-toxic

State the recorded Activity for this entry: O=C(O)[C@H]1CSC(c2ccc(O)cc2O)=N1 Non-toxic

# get_value(readout='Activity', item= COc1ccc(C2=N[C@@H](C(=O)O)CS2)c(O)c1OC ) Non-toxic

---

# Test system: Rattus norvegicus
# Test details: Drug level in Sprague-Dawley rat kidney at 300 umol/kg, sc after 0.5 hrs
# Format: ADME, organism-based
# Test parameters: in vivo
Hi, to clarify the labels: yes (1) covers Drug uptake from 700 nmol/g upward, no (0) covers anything below 700 nmol/g.

Reported Drug uptake at or above 700 nmol/g? O=C(O)[C@H]1CSC(c2ccc(O)cc2O)=N1 no (0)

Please check the record O=C(O)[C@H]1CSC(c2cc(O)ccc2O)=N1 and state if its Drug uptake is at or above 700 nmol/g. no (0)

Could you tell me if the measured Drug uptake of C[C@]1(C(=O)O)CSC(c2ccc(O)cc2O)=N1 reaches 700 nmol/g or more? no (0)

Given COc1ccc(C2=N[C@@](C)(C(=O)O)CS2)c(O)c1 , state whether its Drug uptake is at least 700 nmol/g. no (0)

State whether the measured Drug uptake reaches 700 nmol/g, counting equality as reaching it, for COc1ccc(C2=N[C@@](C)(C(=O)O)CS2)c(O)c1OC yes (1)

Hi team, for C[C@]1(C(=O)O)CSC(c2cc(O)ccc2O)=N1 , is the recorded Drug uptake at or above 700 nmol/g? yes (1)
